Test: Trypsin digestion: proof of encapsulation and half-life
Type: in vitro ADME
Settings: role: substrate; 0.003% trypsin, acetate buffer pH=5, 25 °C, peptide 100 ppm; read-out: T1/2 (loss of 50% of the initial content)
Residues, ends and D or L forms follow the SMILES beside them. *: point of attachment. Palmitoyl = CCCCCCCCCCCCCCCC(=O)*
Measurement Name: half-life (h)
Write the value in h as a bare number.

Per the record, CCCCCCCCCCCCCCCC(=O)N[C@@H](CCCCN)C(=O)N[C@H](C(=O)N[C@H](C(=O)N[C@@H](CCCCN)C(=O)N[C@@H](CO)C(=O)O)[C@@H](C)O)[C@@H](C)O [Pal-KTTKS] (Palmitoyl-KTTKS-OH) has half-life of 1
